Target: Alpha-2C adrenergic receptor (Homo sapiens, UniProt P18825)
Sequence (P18825 whole entry): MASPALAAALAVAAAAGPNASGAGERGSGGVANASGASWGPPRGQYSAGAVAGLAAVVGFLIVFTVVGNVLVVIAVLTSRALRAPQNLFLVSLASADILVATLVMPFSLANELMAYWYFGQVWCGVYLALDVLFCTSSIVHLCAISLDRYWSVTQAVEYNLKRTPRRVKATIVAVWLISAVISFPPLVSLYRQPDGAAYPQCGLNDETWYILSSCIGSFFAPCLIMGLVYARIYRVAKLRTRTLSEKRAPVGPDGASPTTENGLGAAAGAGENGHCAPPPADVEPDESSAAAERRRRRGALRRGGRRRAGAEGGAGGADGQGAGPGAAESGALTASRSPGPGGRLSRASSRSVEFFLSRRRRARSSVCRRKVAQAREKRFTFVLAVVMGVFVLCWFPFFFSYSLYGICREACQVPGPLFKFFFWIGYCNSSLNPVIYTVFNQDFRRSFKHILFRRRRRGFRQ
Format: functional, cell-based, CHO
Description: Agonist activity at human adrenergic alpha-2C receptor expressed in CHO cells assessed as extracellular acidification by cytosensor microphysiometry
Property: EC50; scope: individual molecules
Report only the number, with the unit µM understood.

[[record]]
molecule = "CC(Oc1ccccc1-c1cccc(F)c1)C1=NCCN1 (stereo not given)"
experimental_system = "Alpha-2C adrenergic receptor (Homo sapiens, UniProt P18825)"
observed_measurement = 0.0603

[[record]]
molecule = "CC(Nc1ccccc1-c1ccccc1)C1=NCCN1 (stereo not given)"
experimental_system = "Alpha-2C adrenergic receptor (Homo sapiens, UniProt P18825)"
observed_measurement = 0.0933

[[record]]
molecule = "CC(Oc1ccccc1-c1cccc(N)c1)C1=NCCN1 (stereo not given)"
experimental_system = "Alpha-2C adrenergic receptor (Homo sapiens, UniProt P18825)"
observed_measurement = 0.501


Quick check: EC50 on Alpha-2C adrenergic receptor (Homo sapiens, UniProt P18825), item CC(Oc1ccccc1-c1cccnc1)C1=NCCN1 (stereo not given) ?
0.0501

# returns recorded EC50 (system: Alpha-2C adrenergic receptor (Homo sapiens, UniProt P18825)) for CC(Oc1ccccc1-c1cccc(O)c1)C1=NCCN1 (stereo not given)
0.0468
